Biological target: Prolactin-releasing peptide receptor (Homo sapiens)
Sequence (P49683 whole entry): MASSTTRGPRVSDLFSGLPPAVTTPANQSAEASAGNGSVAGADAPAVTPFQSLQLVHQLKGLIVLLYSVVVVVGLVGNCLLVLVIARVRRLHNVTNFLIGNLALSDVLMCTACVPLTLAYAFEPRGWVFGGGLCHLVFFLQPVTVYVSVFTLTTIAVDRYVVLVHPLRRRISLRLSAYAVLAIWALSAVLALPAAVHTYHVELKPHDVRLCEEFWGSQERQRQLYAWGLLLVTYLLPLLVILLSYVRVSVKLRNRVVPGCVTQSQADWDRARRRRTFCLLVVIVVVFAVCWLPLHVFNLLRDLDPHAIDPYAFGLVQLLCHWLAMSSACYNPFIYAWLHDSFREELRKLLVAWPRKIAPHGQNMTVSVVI
Assay: Antagonist activity at human PRLHR expressed in CHO-K1 cells by PathHunter beta-arrestin assay
Type: cell-based

| chemical_smiles | unit | IC50 |
| --- | --- | --- |
| COC(=O)[C@@H]1[C@H]2C[C@@H](OCc3ccc(Br)cc3)c3[nH]c4ccccc4c3CCN(C#N)C[C@@H]2CC[C@@H]1O | µM | 4.89 |

* * *

Molecular target: UniProtKB P51685
Sequence (P51685 whole entry): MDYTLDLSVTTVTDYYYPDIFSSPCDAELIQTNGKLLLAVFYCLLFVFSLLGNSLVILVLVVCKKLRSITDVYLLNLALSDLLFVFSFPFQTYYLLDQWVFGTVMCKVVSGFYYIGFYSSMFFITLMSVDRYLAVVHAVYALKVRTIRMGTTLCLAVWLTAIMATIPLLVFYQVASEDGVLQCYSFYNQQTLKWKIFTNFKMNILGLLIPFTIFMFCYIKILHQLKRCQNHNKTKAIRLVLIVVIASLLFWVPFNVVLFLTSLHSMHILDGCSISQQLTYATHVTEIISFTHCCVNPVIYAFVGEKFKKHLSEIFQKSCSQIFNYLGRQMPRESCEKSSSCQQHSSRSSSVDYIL
Assay: Antagonist activity at human CCR8 expressed in CHO-K1 cells at 20 uM by PathHunter beta-arrestin assay relative to control
Type: cell-based
Conditions: filed as antagonist
Some molecules, each annotated with its measured inhibition.
quantity: inhibition (%)

| chemical_smiles | quantity | unit | measured_number |
| --- | --- | --- | --- |
| COC(=O)[C@@H]1[C@H]2C[C@@H]([C@@]3(CCn4cc(CCCCO)nn4)C(=O)Nc4ccccc43)N(C#N)C[C@@H]2CC[C@@H]1O | inhibition | % | 5 |
| COC(=O)[C@@H]1[C@H]2C[C@H]3OCc4ccccc4-n4c3c(c3ccccc34)CCN(C#N)C[C@@H]2CC[C@@H]1O | inhibition | % | 10 |
| COC(=O)[C@@H]1[C@H]2C[C@@H]3N(CC[C@@]34C(=O)N(Cc3cccc(OC)c3)c3ccccc34)C[C@@H]2CC[C@@H]1OCc1cccc(OC)c1 | inhibition | % | 88 |
| COC(=O)[C@@H]1[C@H]2C[C@@H](OCc3ccc(Br)cc3)c3[nH]c4ccccc4c3CCN(C#N)C[C@@H]2CC[C@@H]1O | inhibition | % | 78 |
| COC(=O)[C@@H]1[C@H]2C[C@@H](c3[nH]c4ccccc4c3CCn3cc(-c4cccc(Cl)c4)nn3)N(C#N)C[C@@H]2CC[C@@H]1O | inhibition | % | 90 |
| COC(=O)[C@@H]1[C@H]2C[C@@H]3OCc4ccccc4-n4c3c(c3ccccc34)CCN(C#N)C[C@@H]2CC[C@@H]1O | inhibition | % | 15 |
| COC(=O)[C@@H]1[C@H]2C[C@@H]3N(CC[C@@]34C(=O)N(c3cncc(OC)n3)c3ccccc34)C[C@@H]2CC[C@@H]1O | inhibition | % | 9 |

* * *

Tested on: U2OS
Test: Antagonist activity at NPSR1B in human U2OS cells at 20 uM by PathHunter beta-arrestin assay relative to control
Format: cell-based
Conditions: filed as antagonist

| chemical_smiles | assayed_system | inhibition |
| --- | --- | --- |
| COC(=O)[C@@H]1[C@H]2C[C@@H](c3[nH]c4ccccc4c3CCn3cc(-c4cccc(Cl)c4)nn3)N(C#N)C[C@@H]2CC[C@@H]1O | U2OS | 62% |
| COC(=O)[C@@H]1[C@H]2C[C@@H](OCc3ccc(Br)cc3)c3[nH]c4ccccc4c3CCN(C#N)C[C@@H]2CC[C@@H]1O | U2OS | 87% |
| COC(=O)[C@@H]1[C@H]2C[C@@H]3N(CC[C@@]34C(=O)N(Cc3cccc(OC)c3)c3ccccc34)C[C@@H]2CC[C@@H]1OCc1cccc(OC)c1 | U2OS | 48% |
| COC(=O)[C@@H]1[C@H]2C[C@H]3OCc4ccccc4-n4c3c(c3ccccc34)CCN(C#N)C[C@@H]2CC[C@@H]1O | U2OS | 1% |
